Hi there, I'd appreciate the recorded Percent BCL6 remaining at maximal degradation (Ycon) for every entry that follows.
# experimental system: BCL6 (Homo sapiens)
# Construct: HiBiT-tag knocked into endogenous BCL6 locus using CRISPR; endogenous in cells; host or cells: DHL-4_BCL6_HiBiT cells (CRISPR knock-in)
# method: BCL6_HiBiT degradation assay (2 h)
# Type: cell-based
# cond: DHL-4_BCL6_HiBiT cells, read-out: YCon (% remaining maximal effect)

[
  {
    "compound": "C[C@@H]1CN(c2ncc(Cl)c(Nc3ccc4c(c3)CC(=O)N4C)n2)CC[C@H]1Nc1ccc2c(-n3ccc(=O)[nH]c3=O)nn(C)c2c1",
    "experimental result": "< 20%"
  }
]

Provide reported Percent BCL6 remaining at maximal degradation (Ycon) for each item, in the same order as listed.
1. COCCN1C(=O)Cc2cc(Nc3nc(N4CC[C@@H](Nc5ccc6c([C@@H]7CCC(=O)NC7=O)nn(C)c6c5)[C@H](C)C4)ncc3Cl)ccc21 (single isomer, unassigned)
2. CCN1C(=O)Cc2cc(Nc3nc(N4CCC(Nc5ccc6c(N7CCC(=O)NC7=O)nn(C)c6c5)CC4)ncc3Cl)ccc21
3. CN1C(=O)Cc2cc(Nc3nc(N4CC[C@H](Nc5ccc6c(C7CCC(=O)NC7=O)nn(C)c6c5)[C@H](CO)C4)ncc3Cl)ccc21 (stereo partly drawn)
4. Cn1nc(C2CCC(=O)NC2=O)c2ccc(N3CCN(c4ncc(Cl)c(Nc5ccc6c(c5)CC(=O)N6)n4)CC3)cc21 (stereo not drawn)
5. CN1C(=O)Cc2cc(Nc3nc(NC4CCN(c5ccc6c(C7CCC(=O)NC7=O)nn(C)c6c5)CC4)ncc3Cl)ccc21 (stereo not drawn)

OUTPUT:
1: < 20%; 2: > 60%; 3: 20 to 60%; 4: > 60%; 5: > 60%

---

# experimental system: BCL6 (Homo sapiens, UniProt P41182)
# Construct: HiBiT-tag knocked into endogenous BCL6 locus using CRISPR; endogenous in cells; host or cells: DHL-4_BCL6_HiBiT cells (CRISPR knock-in)
# method: BCL6_HiBiT degradation assay (2 h)
# Format: cell-based
# cond: DHL-4_BCL6_HiBiT cells, read-out: YCon (% remaining maximal effect)
property: Percent BCL6 remaining at maximal degradation (Ycon)

Take a look at these entries with their results.
[
  {
    "compound": "C[C@H]1C[C@@H](N(C)c2ncc(Cl)c(Nc3ccc4c(c3)CC(=O)N4C)n2)CCN1c1ccc2c(C3CCC(=O)NC3=O)nn(C)c2c1 (stereo partly drawn)",
    "experimental result": "20 to 60%"
  },
  {
    "compound": "CO[C@@H]1CN(c2nc(F)c(Cl)c(Nc3ccc4c(c3)CC(=O)N4C)n2)CC[C@H]1Nc1ccc2c(N3CCC(=O)NC3=O)nn(C)c2c1",
    "experimental result": "20 to 60%"
  },
  {
    "compound": "C[C@H]1C[C@H](Nc2ccc3c(C4CCC(=O)NC4=O)nn(C)c3c2)CCN1c1ncc(Cl)c(Nc2ccc3c(c2)CC(=O)N3C)n1 (stereo partly drawn)",
    "experimental result": "< 20%"
  },
  {
    "compound": "CO[C@@H]1CN(c2nc(F)c(Cl)c(Nc3ccc4c(c3)CC(=O)N4C)n2)CC[C@H]1Nc1ccc2c(C3(C)CCC(=O)NC3=O)nn(C)c2c1 (stereo partly drawn)",
    "experimental result": "20 to 60%"
  }
]

Provide reported Percent BCL6 remaining at maximal degradation (Ycon) for each item, in the same order as listed.
1. CCN1C(=O)Cc2cc(Nc3nc(N4CCC(Nc5ccc6c([C@H]7CCC(=O)NC7=O)nn(C)c6c5)CC4)ncc3Cl)ccc21 (single isomer, unassigned)
2. C[C@@H]1CN(c2ncc(C#N)c(Nc3ccc4c(c3F)CC(=O)N4C)n2)CC[C@H]1Nc1ccc2c(C3CCC(=O)NC3=O)nn(C)c2c1 (stereo partly drawn)

OUTPUT:
["> 60%", "< 20%"]

---

# experimental system: BCL6 (Homo sapiens, UniProt P41182)
# Construct: HiBiT-tag knocked into endogenous BCL6 locus using CRISPR; endogenous in cells; host or cells: DHL-4_BCL6_HiBiT cells (CRISPR knock-in)
# method: BCL6_HiBiT degradation assay (2 h)
# Assay type: cell-based
# cond: DHL-4_BCL6_HiBiT cells, read-out: YCon (% remaining maximal effect)
property: Percent BCL6 remaining at maximal degradation (Ycon)

Take a look at these entries with their results.
[
  {
    "compound": "C[C@@H]1CN(c2ncc(Cl)c(Nc3ccc4c(c3)CC(=O)N4CCC(C)(C)F)n2)CC[C@H]1Nc1ccc2c([C@H]3CCC(=O)NC3=O)nn(C)c2c1 (single isomer, unassigned)",
    "experimental system": "BCL6 (Homo sapiens, UniProt P41182)",
    "experimental result": "< 20%"
  },
  {
    "compound": "C[C@@H]1CN(c2ncc(Cl)c(Nc3ccc4c(c3)CC(=O)N4C)n2)CC[C@H]1Nc1ccc2c([C@@H]3CCC(=O)NC3=O)nn(C)c2c1 (single isomer, unassigned)",
    "experimental system": "BCL6 (Homo sapiens, UniProt P41182)",
    "experimental result": "< 20%"
  },
  {
    "compound": "C[C@@H]1C[C@H](N(C)c2ccc3c(C4CCC(=O)NC4=O)nn(C)c3c2)CCN1c1ncc(Cl)c(Nc2ccc3c(c2)CC(=O)N3C)n1 (some centres unmarked)",
    "experimental system": "BCL6 (Homo sapiens, UniProt P41182)",
    "experimental result": "> 60%"
  }
]

Provide reported Percent BCL6 remaining at maximal degradation (Ycon) for each item, in the same order as listed.
1. C[C@H]1C[C@H](Nc2ccc3c([C@H]4CCC(=O)NC4=O)nn(C)c3c2)CCN1c1ncc(Cl)c(Nc2ccc3c(c2)CC(=O)N3C)n1 (single isomer, unassigned)
2. COCCN1C(=O)Cc2cc(Nc3nc(N4CC[C@@H](Nc5ccc6c([C@H]7CCC(=O)NC7=O)nn(C)c6c5)[C@H](C)C4)ncc3Cl)ccc21 (single isomer, unassigned)

OUTPUT:
1: < 20%; 2: < 20%

---

# experimental system: BCL6 (Homo sapiens, UniProt P41182)
# Construct: HiBiT-tag knocked into endogenous BCL6 locus using CRISPR; endogenous in cells; host or cells: DHL-4_BCL6_HiBiT cells (CRISPR knock-in)
# method: BCL6_HiBiT degradation assay (2 h)
# Assay type: cell-based
# cond: DHL-4_BCL6_HiBiT cells, read-out: YCon (% remaining maximal effect)
property: Percent BCL6 remaining at maximal degradation (Ycon)

Take a look at these entries with their results.
[
  {
    "compound": "C[C@@H]1CN(c2ncc(C#N)c(Nc3cc4c(cc3F)N(C)C(=O)C4)n2)CC[C@H]1Nc1ccc2c(C3CCC(=O)NC3=O)nn(C)c2c1 (stereo partly drawn)",
    "experimental result": "< 20%"
  },
  {
    "compound": "CN1C(=O)Cc2cc(Nc3nc(N4CC[C@H](Nc5ccc6c(C7CCC(=O)NC7=O)nn(C)c6c5)[C@@H](F)C4)ncc3Cl)ccc21 (stereo partly drawn)",
    "experimental result": "20 to 60%"
  },
  {
    "compound": "CC1C(=O)N(c2ccc3c(C4CCC(=O)NC4=O)nn(C)c3c2)CCN1c1ncc(Cl)c(Nc2ccc3c(c2)CC(=O)N3C)n1 (stereo not drawn)",
    "experimental result": "> 60%"
  },
  {
    "compound": "C[C@@H]1C[C@H](N(C)c2ncc(Cl)c(Nc3ccc4c(c3)CC(=O)N4C)n2)CCN1c1ccc2c(C3CCC(=O)NC3=O)nn(C)c2c1 (stereo partly drawn)",
    "experimental result": "< 20%"
  }
]

Provide reported Percent BCL6 remaining at maximal degradation (Ycon) for each item, in the same order as listed.
1. C[C@@H]1CN(c2ncc(Cl)c(Nc3cc(F)c4c(c3)CC(=O)N4C)n2)CC[C@H]1Nc1ccc2c([C@H]3CCC(=O)NC3=O)nn(C)c2c1 (single isomer, unassigned)
2. CN1C(=O)Cc2cc(Nc3nc(N(C)[C@@H]4CCN(c5ccc6c(C7CCC(=O)NC7=O)nn(C)c6c5)C(=O)C4)ncc3Cl)ccc21 (single isomer, unassigned)
3. Cn1nc(C2CCC(=O)NC2=O)c2ccc(NC3CCN(c4ncc(Cl)c(Nc5ccc6c(c5)N(CCC(C)(C)O)C(=O)C6)n4)CC3)cc21 (stereo not drawn)
4. C[C@H]1C[C@H](N(C)c2ccc3c([C@@H]4CCC(=O)NC4=O)nn(C)c3c2)CCN1c1ncc(Cl)c(Nc2ccc3c(c2)CC(=O)N3C)n1 (single isomer, unassigned)
5. C[C@@H]1C[C@H](Nc2ccc3c(C4CCC(=O)NC4=O)nn(C)c3c2)CCN1c1ncc(Cl)c(Nc2ccc3c(c2)CC(=O)N3C)n1 (stereo partly drawn)
6. CN1C(=O)Cc2cc(Nc3nc(N4CCC(Nc5ccc6c(N7CCC(=O)NC7=O)nn(C)c6c5)CC4)ncc3C#N)ccc21
7. CO[C@@H]1CN(c2ncc(C#N)c(Nc3ccc4c(c3)CC(=O)N4C)n2)CC[C@H]1Nc1ccc2c(C3(C)CCC(=O)NC3=O)nn(C)c2c1 (stereo partly drawn)

OUTPUT:
["< 20%", "< 20%", "> 60%", "> 60%", "> 60%", "> 60%", "20 to 60%"]

Percent BCL6 remaining at maximal degradation (Ycon) measured on CN1C(=O)Cc2cc(Nc3nc(N(C)C4CCN(c5cnc6c(C7CCC(=O)NC7=O)nn(C)c6c5)CC4)ncc3Cl)ccc21 (stereo not drawn) = > 60%

Where these numbers come from: patent US12404239B2
